Source: ChEMBL document CHEMBL6134843

assay: MRT (0 to infinity) in ICR(CD-1) mouse at 50 mg/kg, ip treated up to 24 hrs by LC-MS/MS analysis; format: ADME, organism-based; conditions: in vivo
experimental.readout: MRT inf (h)
Please respond with the number in h and leave the unit unwritten.

stdin: What does the data say about its MRT inf? Entry: O=C(NO)c1cccc2[nH]c(C#Cc3cccc(C(F)(F)F)c3)cc12
stdout: 6.03

---

molecular target: UniProtKB Q13547; experiment: Inhibition of C-terminal 6xHis/FLAG-tagged full length human recombinant HDAC1 (1 to 482 end residues) expressed in Sf9 cells using Boc-Lys-(acetyl)-AMC as substrate preincubated with enzyme for 1 hr followed by substrate addition and measured after 30 mins by fluorescence analysis
Sequence (Q13547 whole entry): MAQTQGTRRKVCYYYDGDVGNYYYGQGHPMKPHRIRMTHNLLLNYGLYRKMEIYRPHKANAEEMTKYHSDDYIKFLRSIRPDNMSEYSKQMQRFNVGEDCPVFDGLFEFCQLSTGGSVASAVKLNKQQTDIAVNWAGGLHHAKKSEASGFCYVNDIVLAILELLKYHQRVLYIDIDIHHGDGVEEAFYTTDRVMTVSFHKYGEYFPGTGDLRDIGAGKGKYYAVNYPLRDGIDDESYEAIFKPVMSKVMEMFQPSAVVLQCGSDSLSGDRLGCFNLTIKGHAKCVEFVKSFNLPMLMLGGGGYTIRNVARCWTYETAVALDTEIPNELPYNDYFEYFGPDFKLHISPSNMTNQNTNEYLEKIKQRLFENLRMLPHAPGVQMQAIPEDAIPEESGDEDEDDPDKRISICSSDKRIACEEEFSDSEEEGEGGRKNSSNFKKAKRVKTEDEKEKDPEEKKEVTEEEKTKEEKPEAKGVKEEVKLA
experimental.readout: IC50 (µM)
// units = µM; emit number, no label

stdin: # input compound: CCCCCCCCCCCCCCCCNNC(=O)c1cccs1 ; wanted: its IC50
stdout: 92.5
